# assayed.system: 72 kDa heat shock protein (HSP72), recombinant human (human, UniProt P0DMV8 1-641)
# Sequence (P0DMV8 whole entry): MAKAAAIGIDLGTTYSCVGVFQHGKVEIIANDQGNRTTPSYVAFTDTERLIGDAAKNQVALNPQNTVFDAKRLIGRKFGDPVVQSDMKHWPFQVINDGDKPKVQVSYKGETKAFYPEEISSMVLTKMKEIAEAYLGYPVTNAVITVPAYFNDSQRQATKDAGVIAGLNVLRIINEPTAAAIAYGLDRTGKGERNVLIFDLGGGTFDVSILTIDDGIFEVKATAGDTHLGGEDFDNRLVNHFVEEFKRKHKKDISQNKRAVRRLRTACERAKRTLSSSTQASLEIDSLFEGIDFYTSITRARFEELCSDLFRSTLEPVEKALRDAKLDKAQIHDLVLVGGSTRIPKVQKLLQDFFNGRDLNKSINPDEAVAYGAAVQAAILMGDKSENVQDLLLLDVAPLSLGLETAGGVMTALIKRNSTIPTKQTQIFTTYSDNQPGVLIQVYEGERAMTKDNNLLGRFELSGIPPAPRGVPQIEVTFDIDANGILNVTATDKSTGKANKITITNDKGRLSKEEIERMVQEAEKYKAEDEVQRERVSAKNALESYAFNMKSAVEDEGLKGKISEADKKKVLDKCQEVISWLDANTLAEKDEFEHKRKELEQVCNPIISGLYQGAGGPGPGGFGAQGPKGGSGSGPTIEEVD
# protocol: SPR
measurement.kind: Kd

For the binder DTDTPIVYNDRNLLD [Peptide N, the extreme carboxyl terminus (15 amino acids) of the Edmonston MV N protein] , give its reported Kd.
1000 nM
